Source: patent US20220017615A1

- Measurement Target: T1, human CD47, full length, on transfected cells (human, UniProt Q08722 19-323)
- T1 construct: whole, on cells; also called CHOK1-hCD47
- Method Summary: FACS CHOK1-hCD47; Ab 40 nM
Please respond with reported mean fluorescence intensity for every item in the list.
Numbers only.

Past entries and their recorded results:
{"Binder": "95E2D10 (antibody, V domains shown, Murine hybridoma antibody purified on protein G) VH: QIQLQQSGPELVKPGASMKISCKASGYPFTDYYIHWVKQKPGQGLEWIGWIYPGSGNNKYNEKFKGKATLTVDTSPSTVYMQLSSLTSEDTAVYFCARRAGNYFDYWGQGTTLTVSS VL: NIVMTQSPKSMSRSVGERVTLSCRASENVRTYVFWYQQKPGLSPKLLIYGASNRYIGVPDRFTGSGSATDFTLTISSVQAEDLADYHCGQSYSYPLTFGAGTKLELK", "mean fluorescence intensity": 17300}
{"Binder": "54G8G6 (antibody, V domains shown, Murine hybridoma antibody purified on protein G) VH: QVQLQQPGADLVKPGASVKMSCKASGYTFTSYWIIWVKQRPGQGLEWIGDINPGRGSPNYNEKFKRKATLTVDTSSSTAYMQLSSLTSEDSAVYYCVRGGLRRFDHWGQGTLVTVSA VL: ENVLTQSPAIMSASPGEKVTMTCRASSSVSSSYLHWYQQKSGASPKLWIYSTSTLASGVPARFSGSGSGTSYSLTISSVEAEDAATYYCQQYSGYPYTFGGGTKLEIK", "mean fluorescence intensity": 17700}
{"Binder": "25E3B5 (antibody, V domains shown, Murine hybridoma antibody purified on protein G) VH: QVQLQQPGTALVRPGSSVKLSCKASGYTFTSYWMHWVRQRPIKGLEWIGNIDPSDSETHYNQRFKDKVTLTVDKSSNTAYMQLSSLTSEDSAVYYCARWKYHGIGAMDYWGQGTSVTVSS VL: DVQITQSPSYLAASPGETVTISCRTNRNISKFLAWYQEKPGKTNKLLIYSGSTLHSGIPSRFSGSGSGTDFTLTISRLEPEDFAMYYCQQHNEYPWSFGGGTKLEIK", "mean fluorescence intensity": 9790}
{"Binder": "4D10B11 (antibody, V domains shown, Murine hybridoma antibody purified on protein G) VH: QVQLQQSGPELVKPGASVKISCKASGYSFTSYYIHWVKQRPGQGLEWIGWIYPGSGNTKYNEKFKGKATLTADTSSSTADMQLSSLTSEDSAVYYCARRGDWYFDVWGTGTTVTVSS VL: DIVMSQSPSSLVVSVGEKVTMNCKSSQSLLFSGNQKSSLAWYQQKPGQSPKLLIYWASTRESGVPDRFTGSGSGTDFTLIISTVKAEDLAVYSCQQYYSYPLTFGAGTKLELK", "mean fluorescence intensity": 8900}

Batch: mean fluorescence intensity for all items listed.
1. 20H4G5 (antibody, V domains shown, Murine hybridoma antibody purified on protein G) VH: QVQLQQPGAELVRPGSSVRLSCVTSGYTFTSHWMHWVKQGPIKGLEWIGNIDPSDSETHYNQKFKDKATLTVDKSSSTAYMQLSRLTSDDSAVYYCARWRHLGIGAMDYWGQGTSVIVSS VL: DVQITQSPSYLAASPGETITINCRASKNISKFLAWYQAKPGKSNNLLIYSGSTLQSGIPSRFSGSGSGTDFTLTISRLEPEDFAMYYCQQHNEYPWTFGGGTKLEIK
2. 132D1E5 (antibody, V domains shown, Murine hybridoma antibody purified on protein G) VH: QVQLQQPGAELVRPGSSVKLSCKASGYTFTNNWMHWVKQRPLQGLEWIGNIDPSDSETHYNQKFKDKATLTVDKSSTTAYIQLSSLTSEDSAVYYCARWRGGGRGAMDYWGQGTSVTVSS VL: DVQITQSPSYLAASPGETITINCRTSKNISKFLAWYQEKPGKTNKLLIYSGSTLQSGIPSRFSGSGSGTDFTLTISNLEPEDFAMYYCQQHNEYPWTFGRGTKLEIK

9520
8230

Entry 51E2F11 (antibody, V domains shown, Murine hybridoma antibody purified on protein G) VH: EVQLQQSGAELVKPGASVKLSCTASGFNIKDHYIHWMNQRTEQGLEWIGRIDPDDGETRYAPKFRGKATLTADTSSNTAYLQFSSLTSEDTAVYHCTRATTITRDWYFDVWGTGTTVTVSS VL: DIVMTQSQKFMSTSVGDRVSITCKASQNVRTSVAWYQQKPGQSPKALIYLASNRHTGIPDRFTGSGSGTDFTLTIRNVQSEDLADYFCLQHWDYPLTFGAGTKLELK has what mean fluorescence intensity?
15900
